Parameter: viability at 50 µg/mL. Scope: all listed entries.
Tested on: MDA-MB
measurement.protocol: cells
assay.conditions: Homo sapiens, read-out: Average cell viability, MDA-MB; 50 ug/mL

CCCCCCCCCCCCCCCC(=O)OCC(COC1OC(CO)C(O)C(O)C1O)OC(=O)CCCCCCCCCCCCC (stereo not shown)
70%
CC/C=C\C/C=C\C/C=C\CCCCCCCC(=O)O
81%
CCCCC/C=C\C/C=C\CCCCCCCC(=O)O
17%
CCCCCCCCCCCCCCCC(=O)OCC(O)CO (stereo not shown)
64%
CC/C=C\C/C=C\C/C=C\C/C=C\C/C=C\CCCC(=O)OCC(O)COC1OC(CO)C(O)C(O)C1O (stereo not shown)
30%
CC/C=C\C/C=C\C/C=C\C/C=C\CCC(=O)OC(COC(=O)CCCCCCC/C=C\C/C=C\C/C=C\CC)COC1OC(CO)C(O)C(O)C1O (stereo not shown)
68%

API: the following record is the query input.
Q: What does the record list as viability at 50 µg/mL for CC/C=C\C/C=C\C/C=C\C/C=C\C/C=C\CCCC(=O)OCC(COC1OC(CO)C(O)C(O)C1O)OC(=O)CCC/C=C\C/C=C\C/C=C\C/C=C\C/C=C\CC (stereo not shown) ?
Ans: 27%

Recorded values, source patent US11292807B2.
